Where do these numbers come from? They come from PubChem BioAssay (Tox21).

test: qHTS assay to identify small molecule antagonists of the estrogen receptor alpha (ER-alpha) signaling pathway - cell viability counter screen (AID 743074); conditions: ERalpha-bla HEK293 viability, CellTiter-Glo luminescence, 18 h; series mostly up to 69.4 µM;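 further: HEK293 cells carrying ER-alpha-UAS-bla reporter stimulated with 17beta-estradiol; on the % scale 0 is the no-effect control and ±100 the full control effect; nearly all actives have a fitted effect of over 45% in size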
Inconclusive results are not listed. Activity calls are given as the source filed them. The call rests on the fitted dose curve.
readout_kind: activity, negative = cytotoxicity

- compound: "FC(F)OC(Cl)C(F)(F)F (stereo not drawn)"
  readout_kind: "activity, negative = cytotoxicity"
  observed: "inactive"
- compound: "COC(=O)[C@@H](N)Cc1ccc(O)c(O)c1"
  readout_kind: "activity, negative = cytotoxicity"
  observed: "inactive"
- compound: "CC(C)=CCCC(C)CC(=O)O (stereo not drawn)"
  readout_kind: "activity, negative = cytotoxicity"
  observed: "inactive"
- compound: "COC(=O)c1cc(C(=O)OC)cc(S(=O)(=O)O)c1"
  readout_kind: "activity, negative = cytotoxicity"
  observed: "inactive"
- compound: "O=c1n(CCO)c(=O)n(CCO)c(=O)n1CCO"
  readout_kind: "activity, negative = cytotoxicity"
  observed: "inactive"
- compound: "CCOc1ccc(C(=O)OCCN(CC)CC)cc1"
  readout_kind: "activity, negative = cytotoxicity"
  observed: "inactive"
- compound: "Cc1ccc(=O)n(-c2ccccc2)c1"
  readout_kind: "activity, negative = cytotoxicity"
  observed: "inactive"
- compound: "CC(C)NCC(O)c1ccc(NS(C)(=O)=O)cc1 (stereo not drawn)"
  readout_kind: "activity, negative = cytotoxicity"
  observed: "inactive"

Record CCN(CC)CCNC(=O)c1cc(S(C)(=O)=O)ccc1OC . Reported activity, negative = cytotoxicity: inactive

Record COc1ccc(CCN(C)CCCC(C#N)(c2cc(OC)c(OC)c(OC)c2)C(C)C)cc1OC (stereo not drawn) . Reported activity, negative = cytotoxicity: inactive

Record Cc1cccc(C)c1NC(=O)C(C)N (stereo not drawn) . Reported activity, negative = cytotoxicity: inactive

Record O=C(O)COc1nn(Cc2ccccc2)c2ccccc12 . Reported activity, negative = cytotoxicity: inactive

Record CCCN(CCC)CCc1cccc2c1CC(=O)N2 . Reported activity, negative = cytotoxicity: inactive

###

assay: qHTS assay to identify small molecule agonists of H2AX - cell viability counter screen (AID 1224847); settings: CHO-K1 viability, CellTiter-Glo luminescence, 3 h; series mostly up to 70.9 µM;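 further: wild-type CHO-K1 cells; top concentration of the series differs between compounds; on the % scale 0 is the no-effect control and ±100 the full control effect; nearly all actives have a fitted effect of over 30% in size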
Results filed as inconclusive are left out. Active and inactive are the calls of the source. Calls follow the shape of the full dose curve.
readout_kind: activity change, negative = cytotoxicity

Examples with answers:
- compound: "Nc1ccccc1S(=O)(=O)O"
  observed: "inactive"
- compound: "CC1=CC(C)C(C=O)CC1 (configuration not stated)"
  observed: "inactive"
- compound: "COc1ccc2c(c1)CCCC2=O"
  observed: "inactive"
- compound: "CCS(=O)(=O)c1ccc(OC)c(C(=O)OC)c1"
  observed: "inactive"
- compound: "CS(=O)(=O)O"
  observed: "inactive"

Turning to the following compound.
Record CCCCCCCCCCCC . Reported activity change, negative = cytotoxicity: inactive

###

test: qHTS assay to identify small molecule agonists of the estrogen related receptor signaling pathway with the pleiotropic PPARgamma coactivator (PGC) from Tox21 10K library (AID 1224842); settings: PGC/ERR reporter cell line, luciferase ONE-Glo, 18 h; series mostly up to 92.4 µM; further: on the % scale 0 is the no-effect control and ±100 the full control effect; nearly all actives have a fitted effect of over 15% in size
Results filed as inconclusive are left out. Calls of active or inactive are those of the source. Calls follow the shape of the dose curve; as a rule, active = well fitted activation curve with a large enough effect in the repeat runs; inconclusive = weak or mixed curves, or effect the other way; inactive = no such curve, though single readings can be large or run the other way.
readout_kind: activation

- compound: "COC(=O)C1=C(C)NC(C)=C(C(=O)OC)C1c1ccccc1[N+](=O)[O-]"
  activation: "inactive"
- compound: "N[C@@H](C(=O)N[C@@H]1C(=O)N2C(C(=O)O)=C(Cl)CS[C@H]12)c1ccccc1"
  activation: "-0.0958% [at 8.39 µM] (inactive)"
- compound: "CC(C[N+](C)(C)C)OC(N)=O (stereo unspecified)"
  activation: "inactive"
- compound: "CC(C)NCCCC1(C(N)=O)c2ccccc2-c2ccccc21"
  activation: "inactive"
- compound: "CC(=O)OC/C=C(\\C)CC/C=C(\\C)CCC=C(C)C"
  activation: "inactive"

Record Cc1ccc(C#N)cc1 . Reported activation: inactive
